method: protein stability index of a GFP-peptide fusion (GPS, HEK-293T) (PSI 1-6); higher = more stable;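 further: 24-mer peptide tiles fused after GFP, lentivirally expressed, FACS-sorted into six equal bins by GFP/DsRed ratio, decoded by Illumina sequencing, PSI is the read-weighted mean bin number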
condition_description: treatment: MLN4924 1 uM, 8 h; c terminus: a fixed tail appended
Known protein stability index of a selection of sequences
observed_property: protein stability index

INSERT INTO results (input_sequence, numeric_result) VALUES
  ('SSPAGLSREYKLVMLGAGGVGKSA [RIT1]', 2.96),
  ('ETVKLFICELVMALDYLQNQRIIH [STK32A]', 3.08),
  ('NFSTFIKCIFTQFRIILGDFDYNA [PKD2L1]', 2.94),
  ('GVYGLQRNLLVENIIDIYKQESTR [TRIM55]', 2.95);
